TEST DESCRIPTION: Half life in rat at 0.4 mg/kg, iv by HPLC/MS/MS analysis
Assay type: ADME, organism-based
DETAILS: in vivo
METRIC: half-life (h)

COc1ncc(-c2ccc3nccc(-c4ccnnc4)c3c2)cc1NS(=O)(=O)c1ccc(F)cc1F = 6.2
